test system: Staphylococcus Spp saprophiticus VGH 84-50; test: in vitro antibacterial MIC, agar plate dilution; assay type: cell-based; conditions: 18 hours, 35° C., read-out: MIC
Labelling: MIC reported below 2 mg/L becomes fulfilled; at or above becomes not fulfilled.

{"columns": ["molecule", "label"],
 "data": [
  ["CCn1cc(C(=O)O)c(=O)c2c(F)c(F)c(N3CCSCC3)c(F)c21", "not fulfilled"],
  ["O=C(O)c1cn(-c2ccc(F)cc2)c2cc(N3CCNC(c4ccco4)C3)c(F)cc2c1=O (centres unmarked)", "fulfilled"],
  ["CCn1cc(C(=O)O)c(=O)c2cc(F)c(N3CCNC(c4sc5ccccc5c4C)C3)cc21 (centres unmarked)", "not fulfilled"],
  ["CCCCCCCCCCCCOCC1CN(c2cc3c(cc2F)c(=O)c(C(=O)O)cn3CC)CCN1 (centres unmarked)", "not fulfilled"],
  ["CCCCCCCCCCCCOCC1CN(c2cc3c(cc2F)c(=O)c(C(=O)O)cn3CC)CCN1C (centres unmarked)", "not fulfilled"]
]}

Request: # check: MIC < 2 mg/L for CCn1cc(C(=O)O)c(=O)c2cc(F)c(N3CCNC(CF)C3)c(F)c21 (single isomer, unassigned; (-)) [Example 64]
Response: fulfilled

Request: # check: MIC < 2 mg/L for CCn1cc(C(=O)O)c(=O)c2cc(F)c(N3CCNC(CF)C3)c(F)c21 (racemic) [Example 63]
Response: fulfilled

Request: # check: MIC < 2 mg/L for O=C(O)c1cn(C2CC2)c2cc(N3CCNC(c4ccsc4)C3)c(F)cc2c1=O (centres unmarked)
Response: fulfilled

Request: # check: MIC < 2 mg/L for CCCCCCOCC1CN(c2cc3c(cc2F)c(=O)c(C(=O)O)cn3CC)CCN1C (centres unmarked)
Response: not fulfilled

Request: # check: MIC < 2 mg/L for CCn1cc(C(=O)O)c(=O)c2cc(F)c(N3CCNC(CNC)C3)cc21.Cl.Cl (centres unmarked)
Response: not fulfilled

Request: # check: MIC < 2 mg/L for CN1CCN(c2cc3c(cc2F)c(=O)c(C(=O)O)cn3C2CC2)CC1c1ccsc1 (centres unmarked)
Response: fulfilled

Request: # check: MIC < 2 mg/L for CCn1cc(C(=O)O)c(=O)c2cc(F)c(N3CCN(C)C(c4cc5cc(Cl)ccc5o4)C3)cc21 (centres unmarked)
Response: not fulfilled

Request: # check: MIC < 2 mg/L for CCn1cc(C(=O)O)c(=O)c2c(F)c(F)c(N3CCN(C)CC3)c(F)c21
Response: not fulfilled

* * *

MIC overview
tested on: Escherichia coli CMC 84-11; test: in vitro antibacterial MIC, agar plate dilution; assay type: cell-based; settings: Escherichia coli, CMC8411, 18 h, 35° C., read-out: MIC
# output: bare number, implied unit µg/mL

These recorded examples may help you get a feel for the data.
{"columns": ["molecule", "MIC [µg/mL]"],
 "data": [
  ["O=C(O)c1cn(C2CC2)c2cc(N3CCNC(C4CC4)C3)c(F)cc2c1=O (stereo not drawn)", 0.03],
  ["CCn1cc(C(=O)O)c(=O)c2cc(F)c(N3CCN(C)C(CF)C3)cc21 (stereo not drawn)", 0.5],
  ["CCn1cc(C(=O)O)c(=O)c2cc(F)c(N3CCNC(c4ccc(Br)s4)C3)cc21 (stereo not drawn)", 16],
  ["COCC1CN(c2cc3c(cc2F)c(=O)c(C(=O)O)cn3-c2ccc(F)cc2)CCN1 (stereo not drawn)", 0.12],
  ["CCn1cc(C(=O)O)c(=O)c2cc(F)c(N3CCNC(c4ccc(C)s4)C3)cc21 (stereo not drawn)", 1]
]}

Request: GET /values?readout=MIC&item= CCn1cc(C(=O)O)c(=O)c2cc(F)c(N3CCN(C)C(c4ccsc4)C3)cc21 (stereo not drawn)
Response: 1

Request: GET /values?readout=MIC&item= O=C(O)c1cn(C2CC2)c2cc(N3CCNC(COc4ccccc4)C3)c(F)cc2c1=O (stereo not drawn)
Response: 0.06

Request: GET /values?readout=MIC&item= CCn1cc(C(=O)O)c(=O)c2cc(F)c(N3CCN(C)C(c4ccco4)C3)cc21 (stereo not drawn)
Response: 1

Request: GET /values?readout=MIC&item= CN1CCN(c2cc3c(cc2F)c(=O)c(C(=O)O)cn3C2CC2)CC1C1CC1 (stereo not drawn)
Response: 0.06

Request: GET /values?readout=MIC&item= CCn1cc(C(=O)O)c(=O)c2cc(F)c(N3CCN(C)C(CF)C3)c(F)c21 (racemic)
Response: 0.25

* * *

test system: Providencia stuarti CMC 83-3; assay: in vitro antibacterial MIC, agar plate dilution; type: cell-based; details: Providencia, CMC833, 18 h, 35° C., read-out: MIC
Structures can show the parent of a compound that is named as a salt.
MIC overview
# output: bare number, implied unit µg/mL

These recorded examples may help you get a feel for the data.
{"columns": ["compound", "MIC [µg/mL]"],
 "data": [
  ["O=C(O)c1cn(C2CC2)c2cc(N3CCNC(c4ccsc4)C3)c(F)cc2c1=O (stereo not shown) [Example 98, monohydrochloride]", 8],
  ["O=C(O)c1cn(C2CC2)c2cc(N3CCNC(c4ccoc4)C3)c(F)cc2c1=O (stereo not shown)", 8],
  ["O=C(O)c1cn(C2CC2)c2cc(N3CCNC(CF)C3)c(F)cc2c1=O (stereo not shown)", 16]
]}

Request: GET /values?readout=MIC&item= O=C(O)c1cn(C2CC2)c2cc(N3CCNC(c4cc[nH]c4)C3)c(F)cc2c1=O (stereo not shown)
Response: 4

Request: GET /values?readout=MIC&item= CCn1cc(C(=O)O)c(=O)c2cc(F)c(N3CCNC(c4ccoc4)C3)cc21 (stereo not shown)
Response: 16

Request: GET /values?readout=MIC&item= O=C(O)c1cn(C2CC2)c2cc(N3CCNC(c4ccco4)C3)c(F)cc2c1=O (stereo not shown)
Response: 16

Request: GET /values?readout=MIC&item= O=C(O)c1cn(C2CC2)c2cc(N3CCNC(C4CC4)C3)c(F)cc2c1=O (stereo not shown)
Response: 2

Request: GET /values?readout=MIC&item= CN1CCN(c2c(F)c(F)c3c(=O)c(C(=O)O)cn(C4CC4)c3c2F)CC1
Response: 4

* * *

MIC overview
tested on: Klebsiella pneumoniae IO 83-5; assay: in vitro antibacterial MIC, agar plate dilution; type: cell-based; conditions: Klebsiella pneumoniae, IO835, 18 h, 35° C., read-out: MIC
Where a name gives a salt, the structure may show the parent alone.
# output: bare number, implied unit µg/mL

{"columns": ["compound", "study system", "u", "MIC"],
 "data": [
  ["O=C(O)c1cn(C2CC2)c2cc(N3CCNC(c4ccoc4)C3)c(F)cc2c1=O (stereo not drawn)", "Klebsiella pneumoniae IO 83-5", "µg/mL", 0.25],
  ["O=C(O)c1cn(C2CC2)c2cc(N3CCNC(C4CC4)C3)c(F)cc2c1=O (stereo not drawn)", "Klebsiella pneumoniae IO 83-5", "µg/mL", 0.03],
  ["O=C(O)c1cn(C2CC2)c2cc(N3CCNC(c4ccccn4)C3)c(F)cc2c1=O (stereo not drawn)", "Klebsiella pneumoniae IO 83-5", "µg/mL", 1],
  ["O=C(O)c1cn(C2CC2)c2cc(N3CCNC(c4ccco4)C3)c(F)cc2c1=O (stereo not drawn)", "Klebsiella pneumoniae IO 83-5", "µg/mL", 0.25],
  ["O=C(O)c1cn(C2CC2)c2cc(N3CCNC(c4ccsc4)C3)c(F)cc2c1=O (stereo not drawn) [Example 98, monohydrochloride]", "Klebsiella pneumoniae IO 83-5", "µg/mL", 0.25],
  ["CCn1cc(C(=O)O)c(=O)c2cc(F)c(N3CCNC(c4ccoc4)C3)cc21 (stereo not drawn)", "Klebsiella pneumoniae IO 83-5", "µg/mL", 1]
]}

Please find the next compound below.
Request: GET /values?readout=MIC&item= CCn1cc(C(=O)O)c(=O)c2cc(F)c(N3CCNC(c4cccnc4)C3)cc21 (stereo not drawn)
Response: 2

* * *

system: Staphylococcus epidermidis CMC 83-135; assay: in vitro antibacterial MIC, agar plate dilution; format: cell-based; conditions: CMC83135, 18 hours, 35° C., read-out: MIC
assay readout: MIC (µg/mL)
# output: bare number, implied unit µg/mL

{"columns": ["compound", "u", "MIC"],
 "data": [
  ["CCn1cc(C(=O)O)c(=O)c2cc(F)c(N3CCN(C)C(c4cc5cc(Cl)ccc5o4)C3)cc21 (stereo not drawn) [Example 55]", "µg/mL", 64]
]}

Please find the next compound below.
Request: GET /values?readout=MIC&item= CCCCCCOCC1CN(c2cc3c(cc2F)c(=O)c(C(=O)O)cn3CC)CCN1C (stereo not drawn) [Example 78]
Response: 4

* * *

Test system: Escherichia coli CMC 84-16
Experiment: in vitro antibacterial MIC, agar plate dilution
Type: cell-based
Settings: Escherichia coli, CMC8416, 18 h, 35° C., read-out: MIC
Experimental: The in vitro antimicrobial spectrum of the compounds of ths invention were determined by the agar plate dilution method with Mueller-Hinton agar and an inoculum of each test organism of approximately 10^4 colony forming units delivered by the Steers replicating device. The minimal inhibitory concentration (MIC) in mcg/ml is defined as the lowest concentration of test compound that inhibited visible growth after 18 hours incubation at 35° C. […]
assay readout: MIC (µg/mL)
# output: bare number, implied unit µg/mL

These recorded examples may help you get a feel for the data.
{"columns": ["compound", "MIC [µg/mL]"],
 "data": [
  ["CN1CCN(c2cc3c(cc2F)c(=O)c(C(=O)O)cn3C2CC2)CC1c1ccsc1 (centres unmarked)", 0.06],
  ["CCn1cc(C(=O)O)c(=O)c2c(F)c(F)c(N3CCSCC3)c(F)c21", 2],
  ["CCn1cc(C(=O)O)c(=O)c2cc(F)c(N3CCNC(CF)C3)c(F)c21 (single isomer, unassigned; (-)) [Example 64]", 0.03],
  ["O=C(O)c1cn(-c2ccc(F)cc2)c2cc(N3CCNC(c4ccco4)C3)c(F)cc2c1=O (centres unmarked)", 0.12],
  ["CCCCCCOCC1CN(c2cc3c(cc2F)c(=O)c(C(=O)O)cn3CC)CCN1 (centres unmarked)", 2]
]}

Request: GET /values?readout=MIC&item= CCn1cc(C(=O)O)c(=O)c2cc(F)c(N3CCNC(c4ccsc4)C3)cc21 (centres unmarked)
Response: 0.25

Request: GET /values?readout=MIC&item= CCCCCCOCC1CN(c2cc3c(cc2F)c(=O)c(C(=O)O)cn3CC)CCN1C (centres unmarked)
Response: 32

Request: GET /values?readout=MIC&item= O=C(O)c1cn(C2CC2)c2cc(N3CCNC(c4ccco4)C3)c(F)cc2c1=O (centres unmarked)
Response: 0.03

Request: GET /values?readout=MIC&item= CCn1cc(C(=O)O)c(=O)c2cc(F)c(N3CCNC(CNC)C3)cc21.Cl.Cl (centres unmarked)
Response: 4

Request: GET /values?readout=MIC&item= CCn1cc(C(=O)O)c(=O)c2cc(F)c(N3CCNC(c4ccc(C)s4)C3)cc21 (centres unmarked)
Response: 0.5

Provenance of the data: patent US5210193A
